Just for reference, PubChem BioAssay AID493001 is where these values come from.

- test.details: direct calcium signal without carbachol stimulation – cell-based, HEK293 M3R, non-induced, no carbachol, second counter-screen, artefact control for RGS4 inhibitor project, confirmation (AID 493001)
- test.context: Fluo-4 calcium, at 10 µM, normalised: buffer wells 0%, carbachol wells 100%
The campaign covered roughly 1,900 compounds. About 430 (23%) were called active.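 Rule for the calls: active = duplicate-averaged calcium rise in uninduced cells above buffer wells' mean plus 5 SD; inactive = the rest.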 Not all results are given here.
Output constraint: value belongs to Y for active, N for inactive

Examples from the recorded data:
What outcome does the record of this test show for "O=C(N/N=C/c1ccccc1O)/C(=C/c1ccccc1)CCO" ?
N

What outcome does the record of this test show for Cc1ccc(SC(CC(=O)c2ccc(C(C)(C)C)cc2)C(=O)O)cc1 (stereo not drawn) ?
N

What outcome does the record of this test show for "COc1ccc(S(=O)(=O)Nc2ccc(O)c(Sc3nc4ccccc4s3)c2)cc1" ?
N

What outcome does the record of this test show for "Cc1cc(-c2n[nH]c(=S)n2/N=C/C(Br)=C/c2ccccc2)n[nH]1" ?
N

***
What outcome does the record of this test show for "Cn1c(-c2ccco2)nc2cc3ccccc3cc21" ?
N

What outcome does the record of this test show for "O=C(Nc1ccc(Cl)cc1)OCc1cc(-c2ccccc2)on1" ?
N

What outcome does the record of this test show for "CCc1ccc2oc(-c3ccc(N)cc3)nc2c1" ?
N

What outcome does the record of this test show for "c1ccc(C[C@H]2CNCCN2CCC23CC4CC(CC(C4)C2)C3)cc1" ?
N

* * *

- test.details: direct calcium signal without carbachol stimulation – cell-based, HEK293 M3R, non-induced, no carbachol, second counter-screen, artefact control for RGS4 inhibitor project, confirmation (AID 493001)
- test.context: Fluo-4 calcium, at 10 µM, normalised: buffer wells 0%, carbachol wells 100%
Out of some 1,900 compounds screened, about 430 (23%) were called active.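 The calls were made as follows: active = duplicate-averaged calcium rise in uninduced cells above buffer wells' mean plus 5 SD; inactive = the rest.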 The list is a sample of the results.
Output constraint: value belongs to yes (active), no (inactive)

Examples from the recorded data:
What outcome does the record of this test show for "COc1ccc(/C=C/C(=O)c2ccc(OC)cc2O)cc1" ?
yes

What outcome does the record of this test show for "O=[N+]([O-])/C=C/c1ccc2c(ccn2Cc2ccccc2)c1" ?
yes

***
What outcome does the record of this test show for "C1=C(N2CCOCC2)/C(=C/c2nc3ccccc3[nH]2)CC1" ?
yes

What outcome does the record of this test show for "COC(=O)C1CCN(C(=O)c2cc(=O)[nH]c3ccccc23)CC1" ?
no

What outcome does the record of this test show for "C[C@H](NC(=O)c1nc[nH]c1C(=O)NCC(=O)OC(C)(C)C)c1ccccc1" ?
no

* * *

- test.details: direct calcium signal without carbachol stimulation – cell-based, HEK293 M3R, non-induced, no carbachol, second counter-screen, artefact control for RGS4 inhibitor project, confirmation (AID 493001)
- test.context: Fluo-4 calcium, at 10 µM; active compounds read high, normalised: buffer wells 0%, carbachol wells 100%
Out of some 1,900 compounds screened, about 430 (23%) were called active. A selection follows.
measured.property: calcium response (agonist-mode artifact)

Reference set, count: 5
Report calcium response (agonist-mode artifact) for "Oc1ccc(/C=N/Nc2ccc(C(F)(F)F)cn2)cc1O" please.
inactive

Report calcium response (agonist-mode artifact) for "COC(=O)Cn1cc(/C=C/[N+](=O)[O-])c2ccccc21" please.
11.5% (active)

Report calcium response (agonist-mode artifact) for "Cc1ccc(Sc2cc(N3CCOCC3)nc(-c3ccccc3)n2)cc1" please.
17% (active)

Report calcium response (agonist-mode artifact) for "COc1ccc(NCc2nnc(SCc3ccccc3)n2-c2ccc(OC)cc2)cc1" please.
inactive

Report calcium response (agonist-mode artifact) for "Cc1nc(-c2ccccc2)sc1C(=O)/C=C/c1ccccc1" please.
22.5% (active)

I would be grateful if you could provide calcium response (agonist-mode artifact) for each of the following entries.
1. Nc1cccc(-c2cc(-c3ccccc3)nc(-c3cccc(N)c3)n2)c1
2. O=C(O)C(c1ccccc1)N1C(=O)/C(=C\c2ccc(-c3cccc(Cl)c3)o2)SC1=S (stereo not given)
3. CNc1nc(Nc2ccc(C)c(Cl)c2)nc(N)c1[N+](=O)[O-]
4. CC(=O)Nc1ccc(S(=O)(=O)Nc2nc(-c3ccc(C(C)(C)C)cc3)cs2)cc1
5. COc1cc2c(cc1O)C(SC)=NC(C)(C)C2
6. C=C(C)C(=O)O[C@H]1C/C(C)=C\C(=O)/C=C(\C)[C@H](O)[C@@H]2OC(=O)C(=C)[C@@H]21
7. Cc1cc(C)nc(S/C=C/C(=O)c2ccccc2)n1
8. COc1ccc(OC)c(S(=O)(=O)N2CCCC(C(=O)N3CCC(C(N)=O)CC3)C2)c1 (stereo not given)

inactive
599% (active)
inactive
inactive
inactive
inactive
inactive
inactive

I would be grateful if you could provide calcium response (agonist-mode artifact) for each of the following entries.
1. O=C(/C=C/Sc1ncn[nH]1)c1ccc(Cl)cc1
2. O=C(O)c1ccc2c(c1)C(=O)N(c1ccc(/C=C/C(=O)c3ccccc3)cc1)C2=O

9% (active)
inactive
